Each entry below lists one item and its recorded 180 nM hFGFR1c-V5-6His Bind (RU) value.
Target: T1, extracellular domain of human FGFR1c expressed with C-terminal V5 and hexahistidine tags (human, UniProt P11362 22-376)
T1 construct: also called hFGFR1c-V5-6His
T1 sequence: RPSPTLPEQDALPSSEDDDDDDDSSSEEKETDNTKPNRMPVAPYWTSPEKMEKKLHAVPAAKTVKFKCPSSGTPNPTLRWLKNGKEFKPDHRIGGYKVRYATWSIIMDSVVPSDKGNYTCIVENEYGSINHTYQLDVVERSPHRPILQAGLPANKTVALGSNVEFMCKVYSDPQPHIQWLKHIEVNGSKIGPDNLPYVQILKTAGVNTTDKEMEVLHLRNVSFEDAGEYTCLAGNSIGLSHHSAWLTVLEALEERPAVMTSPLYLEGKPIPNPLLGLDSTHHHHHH
Experiment: SPR, mAb captured, 25 C
Kindly provide the numeric value in RU only, without the unit symbol.

H4H8856P (antibody, V domains shown, human IgG4 Fc (H4H prefix)) VH: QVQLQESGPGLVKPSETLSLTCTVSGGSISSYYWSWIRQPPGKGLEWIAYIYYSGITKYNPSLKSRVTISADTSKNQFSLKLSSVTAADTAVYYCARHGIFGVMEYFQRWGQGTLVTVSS VL: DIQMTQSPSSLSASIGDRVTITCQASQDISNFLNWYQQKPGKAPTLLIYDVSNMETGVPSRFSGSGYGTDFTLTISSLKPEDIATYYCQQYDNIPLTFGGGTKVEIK; 0.1

Any idea what 180 nM hFGFR1c-V5-6His Bind (RU) was measured for H2aM8091N (antibody, V domains shown, mouse IgG2 Fc (H2aM prefix); also called H2M8091N) VH: QVQLVQSGADMKKPGASVKVSCKASGYTFTTYGINWVRQAPGQGLEWMGWISAYSGITNYAQSFQGRVTMTTDTSTSTAYMELRSLRSDDTAVYYCARGGYNWATGDYFDYWGQGTLVTVSS VL: DIQMTQSPSTLSASIGDRVTITCRASQSISSWLAWYQQKPGKAPKFLIYKASSLASGVPSRFSGSGSGTEFTLTISSLQPDDFATYYCQQYDSYSPYTFGQGTKVEIK ?
-0.8
